- Tested on: biotinyl-Ile-oxazolone
- Run description: self-aminoacylation, catalytic enhancement (BIO) (fold over background); higher = more active; k-Seq, kA / k0A0; sequences stand for … in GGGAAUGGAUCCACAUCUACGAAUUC…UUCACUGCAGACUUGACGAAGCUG
Variants at the floor of the assay were thinned out.
Mark 1.0 for reported self-aminoacylation of 0.9 or greater; mark 0.0 for anything smaller.

[[record]]
residue_sequence = "AAGUUUGCUAUUAGUCGCCAG [Fam3.1 aminoacylation ribozyme variant]"
answer_label = 1.0

[[record]]
residue_sequence = "CUACUUCAUACAAUCGGGCUG [Fam1A.1 aminoacylation ribozyme variant]"
answer_label = 1.0

[[record]]
residue_sequence = "CCACGCUUCAAGCAAUCCGUC [Fam1B.1 aminoacylation ribozyme variant]"
answer_label = 0.0

[[record]]
residue_sequence = "AACUUUCCUAAUAGUCGCAAG [Fam3.1 aminoacylation ribozyme variant]"
answer_label = 1.0

[[record]]
residue_sequence = "CCACUCUUCAAGAAAUCGGUC [Fam1B.1 aminoacylation ribozyme variant]"
answer_label = 1.0

[[record]]
residue_sequence = "CUGCUUCCAACAAUCGGUCUG [Fam1A.1 aminoacylation ribozyme variant]"
answer_label = 0.0

[[record]]
residue_sequence = "CCACACUUCAAGCAGUCGGUC [Fam1B.1 aminoacylation ribozyme variant]"
answer_label = 0.0

[[record]]
residue_sequence = "CCAAACUUCAAGCAAUCGUUC [Fam1B.1 aminoacylation ribozyme variant]"
answer_label = 0.0

[[record]]
residue_sequence = "AAAUUUGCUAAUAGUCACAAG [Fam3.1 aminoacylation ribozyme variant]"
answer_label = 1.0

[[record]]
residue_sequence = "AUUCACCUAGGGCAUUGGGUG [Fam2.2 aminoacylation ribozyme variant]"
answer_label = 1.0

[[record]]
residue_sequence = "AAUCACCUAGGACAUCGGGUG [Fam2.2 aminoacylation ribozyme variant]"
answer_label = 1.0

[[record]]
residue_sequence = "AAGUUGGCUAAUAGUCGGAAG [Fam3.1 aminoacylation ribozyme variant]"
answer_label = 1.0

[[record]]
residue_sequence = "CCACACUUCAAGAAAUCUGUC [Fam1B.1 aminoacylation ribozyme variant]"
answer_label = 0.0

[[record]]
residue_sequence = "CCACAUUUCAAGCAAUCGCUC [Fam1B.1 aminoacylation ribozyme variant]"
answer_label = 1.0

